target.under.test: recombinant human GST-SYK (Homo sapiens (Human))
protocol.notes: Homogeneous Time-Resolved Fluorescence (HTRF) Assay for the Recombinant Human Syk Enzyme
reported.conditions: GST-SYK 5 pM, ATP 25 μM, biotinylated substrate peptide 250 nM, HTRF signal
Experimental: Homogeneous Time-Resolved Fluorescence (HTRF) Assay for the Recombinant Human Syk Enzyme A recombinant GST-hSYK fusion protein was used to measure potency of compounds to inhibit human Syk activity. […] The resulting HTRF signal was measured after 30 minutes on an EnVision (Perkin-Elmer) reader using a time-resolved fluorescence protocol. […]
Field 'label' (enum: met / not met). Set to met when IC50 is strictly under 0.008 µM; else not met.

Study these solved cases before continuing.
>>> print(df.to_string())
                                   compound                         target_under_test  answer_label
0  N#Cc1cc(Nc2nccc(C(F)(F)F)n2)cc(-c2cnc(C3(O)CCC(C(=O)O)CC3)s2)c1 (stereo not drawn)  recombinant human GST-SYK (Homo sapiens (Human))       not met
1  OC1(c2ncc(-c3cc(Nc4nccc(C(F)(F)F)n4)cc(-c4nnn[nH]4)c3)s2)CCC1  recombinant human GST-SYK (Homo sapiens (Human))       not met
2  CC(C)(C)/C=C\c1cc(Nc2nccc(C(F)(F)F)n2)cc(-c2cnc([C@]3(O)CC[C@@H](C(=O)O)C(C)(C)C3)s2)c1 (single isomer, unassigned)  recombinant human GST-SYK (Homo sapiens (Human))       not met

Would you kindly verify if IC50 of CC1(C)C[C@](O)(c2ncc(-c3cc(Nc4nccc(C(F)(F)F)n4)cc(-c4ccccc4Cl)c3)s2)CC[C@H]1C(=O)O (single isomer, unassigned) is strictly less than 0.008 µM? not met

Would you kindly verify if IC50 of Cc1ccsc1-c1cc(Nc2nccc(C(F)(F)F)n2)cc(-c2cnc([C@]3(O)CC[C@@H](C(=O)O)C(C)(C)C3)s2)c1 (single isomer, unassigned) is strictly less than 0.008 µM? not met

Would you kindly verify if IC50 of CC1(C)C[C@](O)(c2ncc(-c3cc(Nc4nccc(C(F)(F)F)n4)cc(C4=CCCCC4)c3)s2)CC[C@H]1C(=O)O (single isomer, unassigned) is strictly less than 0.008 µM? not met

Would you kindly verify if IC50 of CC1(C)C[C@@](O)(c2ncc(-c3cc(Nc4nccc(C(F)(F)F)n4)cc(-c4nccs4)c3)s2)CC[C@@H]1C(=O)O (single isomer, unassigned) is strictly less than 0.008 µM? met

Would you kindly verify if IC50 of CC1(C)C[C@](O)(c2ncc(-c3cc(Nc4nccc(C(F)(F)F)n4)cc(-c4ccsc4)c3)s2)CC[C@H]1C(=O)O (single isomer, unassigned) is strictly less than 0.008 µM? not met

Would you kindly verify if IC50 of Cn1cc(-c2cc(Nc3nccc(C(F)(F)F)n3)cc(-c3cnc([C@@]4(O)CC[C@H](C(=O)O)C(C)(C)C4)s3)c2)cn1 (single isomer, unassigned) is strictly less than 0.008 µM? not met

Would you kindly verify if IC50 of CC1(C)C[C@](O)(c2ncc(-c3cc(Nc4nccc(C(F)(F)F)n4)cc(-c4ccccc4F)c3)s2)CC[C@H]1C(=O)O (single isomer, unassigned) is strictly less than 0.008 µM? not met

Would you kindly verify if IC50 of CC1(C)C[C@](O)(c2ncc(-c3cc(Nc4nccc(C(F)(F)F)n4)cc(-c4cc[nH]n4)c3)s2)CC[C@H]1C(=O)O (single isomer, unassigned) is strictly less than 0.008 µM? met

Would you kindly verify if IC50 of CC/C=C\c1cc(Nc2nccc(C(F)(F)F)n2)cc(-c2cnc([C@]3(O)CC[C@@H](C(=O)O)C(C)(C)C3)s2)c1 (single isomer, unassigned) is strictly less than 0.008 µM? met

Would you kindly verify if IC50 of CC1(C)C[C@](O)(c2ncc(-c3cc(Nc4nccc(C(F)(F)F)n4)cc(-c4ccc(F)cc4)c3)s2)CC[C@H]1C(=O)O (single isomer, unassigned) is strictly less than 0.008 µM? not met

Would you kindly verify if IC50 of CC1(C)C[C@](O)(c2ncc(-c3cc(Nc4nccc(C(F)(F)F)n4)cc(-c4ccncc4)c3)s2)CC[C@H]1C(=O)O (single isomer, unassigned) is strictly less than 0.008 µM? met

Would you kindly verify if IC50 of CC1(C)CC(O)(c2ncc(-c3cc(Nc4nccc(C(F)(F)F)n4)cc(S(C)(=O)=O)c3)s2)CCC1C(=O)O (single isomer, unassigned) is strictly less than 0.008 µM? met

Would you kindly verify if IC50 of CC1(C)C[C@](O)(c2ncc(-c3cc(Nc4nccc(C(F)(F)F)n4)cc(-c4cnn(C(C)(C)C)c4)c3)s2)CC[C@H]1C(=O)O (single isomer, unassigned) is strictly less than 0.008 µM? not met

Would you kindly verify if IC50 of CC(C)n1cc(-c2cc(Nc3nccc(C(F)(F)F)n3)cc(-c3cnc([C@]4(O)CC[C@@H](C(=O)O)C(C)(C)C4)s3)c2)cn1 (single isomer, unassigned) is strictly less than 0.008 µM? not met

----------
target.under.test: recombinant human GST-SYK (Homo sapiens (Human), UniProt P43405)
protocol.notes: Homogeneous Time-Resolved Fluorescence (HTRF) Assay for the Recombinant Human Syk Enzyme
reported.conditions: GST-SYK 5 pM, ATP 25 μM, biotinylated substrate peptide 250 nM, HTRF signal
Protocol: Homogeneous Time-Resolved Fluorescence (HTRF) Assay for the Recombinant Human Syk Enzyme A recombinant GST-hSYK fusion protein was used to measure potency of compounds to inhibit human Syk activity. […] The resulting HTRF signal was measured after 30 minutes on an EnVision (Perkin-Elmer) reader using a time-resolved fluorescence protocol. […]
Field 'label' (enum: class 1 / class 0). Set to class 1 when IC50 is strictly under 10 nM; else class 0.

Study these solved cases before continuing.
                                   compound  answer_label
0  COc1cc(Nc2nccc(C(F)(F)F)n2)cc(-c2cnc([C@@]3(O)CC[C@H](C(=O)O)C(C)(C)C3)s2)c1 (single isomer, unassigned)       class 1
1  Cc1ccc(F)c(-c2cc(Nc3nccc(C(F)(F)F)n3)cc(-c3cnc([C@]4(O)CC[C@@H](C(=O)O)C(C)(C)C4)s3)c2)c1 (single isomer, unassigned)       class 0
2  Cc1cc(-c2cc(Nc3nccc(C(F)(F)F)n3)cc(-c3cnc([C@]4(O)CC[C@@H](C(=O)O)C(C)(C)C4)s3)c2)ccc1F (single isomer, unassigned)       class 0
3  COc1cc(Nc2nccc(C(F)(F)F)n2)cc(-c2cnc([C@]3(O)CC[C@@H](C(=O)O)CC3)s2)c1       class 1
4  CC1(C)C[C@](O)(c2ncc(-c3cc(Nc4nccc(C(F)(F)F)n4)cc(-c4ccc(C#N)c(F)c4)c3)s2)CC[C@H]1C(=O)O (single isomer, unassigned)       class 0
5  CC1(C)C[C@](O)(c2ncc(-c3cc(Nc4nccc(C(F)(F)F)n4)cc(-c4cn[nH]c4)c3)s2)CC[C@H]1C(=O)O (single isomer, unassigned)       class 1
6  CCOC(=O)[C@H]1CC[C@](O)(c2ncc(-c3cc(Nc4nccc(C(F)(F)F)n4)cc(-c4cn[nH]c4)c3)s2)C[C@H]1C (racemic)       class 0
7  Cc1ccccc1-c1cc(Nc2nccc(C(F)(F)F)n2)cc(-c2cnc([C@]3(O)CC[C@@H](C(=O)O)C(C)(C)C3)s2)c1 (single isomer, unassigned)       class 0

Would you kindly verify if IC50 of CC1(C)C[C@](O)(c2ncc(-c3cc(Nc4nccc(C(F)(F)F)n4)cc(-c4cccc(F)c4F)c3)s2)CC[C@H]1C(=O)O (single isomer, unassigned) is strictly less than 10 nM? class 0

Would you kindly verify if IC50 of COc1ccc(-c2cc(Nc3nccc(C(F)(F)F)n3)cc(-c3cnc([C@]4(O)CC[C@@H](C(=O)O)C(C)(C)C4)s3)c2)cn1 (single isomer, unassigned) is strictly less than 10 nM? class 1

----------
target.under.test: recombinant human GST-SYK (Homo sapiens (Human))
protocol.notes: Homogeneous Time-Resolved Fluorescence (HTRF) Assay for the Recombinant Human Syk Enzyme
reported.conditions: GST-SYK 5 pM, ATP 25 μM, biotinylated substrate peptide 250 nM, HTRF signal
Listed here: items and their measured IC50.
// units = nM; emit number, no label

Study these solved cases before continuing.
>>> df
                                   compound  test_value
0  C/C=C(\C)c1cc(Nc2nccc(C(F)(F)F)n2)cc(-c2cnc([C@]3(O)CC[C@@H](C(=O)O)C(C)(C)C3)s2)c1 (single isomer, unassigned)        2.75
1  CCn1cc(-c2cc(Nc3nccc(C(F)(F)F)n3)cc(-c3cnc([C@]4(O)CC[C@@H](C(=O)O)C(C)(C)C4)s3)c2)cn1 (single isomer, unassigned)        63.5
2  C=C(C)c1cc(Nc2nccc(C(F)(F)F)n2)cc(-c2cnc([C@]3(O)CC[C@@H](C(=O)O)C(C)(C)C3)s2)c1 (single isomer, unassigned)        3.94
3  CC1(C)C[C@](O)(c2ncc(-c3cc(Nc4nccc(C(F)(F)F)n4)cc(-c4ccc(N)nc4)c3)s2)CC[C@H]1C(=O)O (single isomer, unassigned)        1.29

Alright, here's another compound for you.
Lab book: IC50 of COc1ccc(-c2cc(Nc3nccc(C(F)(F)F)n3)cc(-c3cnc([C@]4(O)CC[C@@H](C(=O)O)C(C)(C)C4)s3)c2)cc1F (single isomer, unassigned) noted as 35.3
